test system: Pneumocystis carinii; assay: Antimicrobial activity against Pneumocystis carinii in immunosuppressed rat assessed as number of cysts/g of lung at 22.0 umol/kg/day, iv relative to control; assay type: functional
Returns: string. Value is yes (1) if measured Activity is below 10%, and no (0) if it is greater than or equal to it.

COMPOUND	CLASSIFICATION
CONC(=N)c1ccc(-c2ccc(-c3ccc(C(=N)NOC)cc3)o2)cc1 [PAFURAMIDINE]	no (0)
N/C(=N\C(=O)OCC(Cl)(Cl)Cl)c1ccc(-c2ccc(-c3ccc(/C(N)=N\C(=O)OCC(Cl)(Cl)Cl)cc3)o2)cc1	yes (1)
O=C(/N=C(\NC1CCCC1)c1ccc(-c2ccc(-c3ccc(/C(=N\C(=O)OCC(Cl)(Cl)Cl)NC4CCCC4)cc3)o2)cc1)OCC(Cl)(Cl)Cl	no (0)
N=C(N)c1ccc(OCCCCCOc2ccc(C(=N)N)cc2)cc1 [PENTAMIDINE]	yes (1)

Let's switch to this compound now.
INPUT: Report whether reported Activity is lower than 10% (strictly) for `CC(C)N/C(=N\C(=O)OCC(Cl)(Cl)Cl)c1ccc(-c2ccc(-c3ccc(/C(=N\C(=O)OCC(Cl)(Cl)Cl)NC(C)C)cc3)o2)cc1`
OUTPUT: yes (1)
